# target-of-assay: CYP3A4 (Homo sapiens, UniProt P08684)
# Sequence (P08684 whole entry): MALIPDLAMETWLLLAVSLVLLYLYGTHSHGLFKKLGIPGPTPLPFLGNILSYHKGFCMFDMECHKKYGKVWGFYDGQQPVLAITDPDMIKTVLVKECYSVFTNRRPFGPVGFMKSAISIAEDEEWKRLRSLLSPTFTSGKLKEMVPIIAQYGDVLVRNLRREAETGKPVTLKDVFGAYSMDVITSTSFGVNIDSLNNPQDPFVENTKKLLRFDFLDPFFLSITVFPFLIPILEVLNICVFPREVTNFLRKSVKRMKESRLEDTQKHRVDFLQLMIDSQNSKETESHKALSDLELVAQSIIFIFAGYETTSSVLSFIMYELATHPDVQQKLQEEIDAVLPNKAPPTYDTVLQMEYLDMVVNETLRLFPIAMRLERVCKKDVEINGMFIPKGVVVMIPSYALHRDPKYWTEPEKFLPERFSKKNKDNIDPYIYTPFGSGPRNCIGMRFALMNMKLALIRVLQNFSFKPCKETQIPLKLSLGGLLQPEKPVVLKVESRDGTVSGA
pIC50: −log10 of the molar value.
property-name: pIC50

Could you tell me which pIC50 is on file for COc1cc(/C=C/C(=O)N2CCC=CC2=O)cc(OC)c1OC ? < 4.00

---

# target-of-assay: CYP2D6 (Homo sapiens, UniProt P10635)
# Sequence (P10635 whole entry): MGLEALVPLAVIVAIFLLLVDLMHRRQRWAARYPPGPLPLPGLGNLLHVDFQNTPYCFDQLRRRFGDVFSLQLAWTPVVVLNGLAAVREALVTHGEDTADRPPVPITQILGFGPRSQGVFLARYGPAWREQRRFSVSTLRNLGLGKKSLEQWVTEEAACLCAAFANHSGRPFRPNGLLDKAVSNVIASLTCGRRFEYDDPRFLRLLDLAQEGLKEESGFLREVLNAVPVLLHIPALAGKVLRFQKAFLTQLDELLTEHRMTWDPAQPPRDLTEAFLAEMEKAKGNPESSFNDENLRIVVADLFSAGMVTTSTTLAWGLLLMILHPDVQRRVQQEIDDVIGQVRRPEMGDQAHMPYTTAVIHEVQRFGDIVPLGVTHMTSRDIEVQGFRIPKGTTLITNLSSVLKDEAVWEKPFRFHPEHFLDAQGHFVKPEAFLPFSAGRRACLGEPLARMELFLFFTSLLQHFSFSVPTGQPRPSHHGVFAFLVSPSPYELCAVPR
pIC50: −log10 of the molar value.
property-name: pIC50

Quick one: pIC50 for COc1cc(/C=C/C(=O)N2CCC=CC2=O)cc(OC)c1OC [PPL, Piperlongumine] ? < 4.00

---

# target-of-assay: CYP1A2 (Homo sapiens)
# Sequence (P05177 whole entry): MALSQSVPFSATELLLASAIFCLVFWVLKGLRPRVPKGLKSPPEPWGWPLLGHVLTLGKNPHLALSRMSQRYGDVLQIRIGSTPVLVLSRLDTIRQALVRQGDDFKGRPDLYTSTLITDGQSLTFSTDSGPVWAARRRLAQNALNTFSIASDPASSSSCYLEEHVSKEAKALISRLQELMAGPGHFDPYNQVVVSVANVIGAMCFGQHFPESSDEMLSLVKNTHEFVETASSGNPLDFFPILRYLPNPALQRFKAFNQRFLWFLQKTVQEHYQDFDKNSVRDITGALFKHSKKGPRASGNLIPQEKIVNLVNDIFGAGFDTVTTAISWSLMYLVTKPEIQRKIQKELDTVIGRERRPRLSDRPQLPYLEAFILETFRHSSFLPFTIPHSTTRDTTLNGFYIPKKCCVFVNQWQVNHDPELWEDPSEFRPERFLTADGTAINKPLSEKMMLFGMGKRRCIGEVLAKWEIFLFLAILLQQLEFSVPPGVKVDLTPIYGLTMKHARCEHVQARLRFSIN
# test-protocol: Mechanism-based (time-dependent) inhibition of CYP1A2 by piperlongumine
# Assay type: in vitro ADME
# Design: dose or concentration left out as unconfirmed
# experimental-setup: human liver microsomes, pH 7.4, probe phenacetin […] µM
property-name: kinact (s⁻¹)
Reply with just the number (in s⁻¹).

Need kinact, item COc1cc(/C=C/C(=O)N2CCC=CC2=O)cc(OC)c1OC 0.000233

Reference source: paper PMC5041077
